- assayTarget: UniProt:Q99705
- Sequence (Q99705 whole entry): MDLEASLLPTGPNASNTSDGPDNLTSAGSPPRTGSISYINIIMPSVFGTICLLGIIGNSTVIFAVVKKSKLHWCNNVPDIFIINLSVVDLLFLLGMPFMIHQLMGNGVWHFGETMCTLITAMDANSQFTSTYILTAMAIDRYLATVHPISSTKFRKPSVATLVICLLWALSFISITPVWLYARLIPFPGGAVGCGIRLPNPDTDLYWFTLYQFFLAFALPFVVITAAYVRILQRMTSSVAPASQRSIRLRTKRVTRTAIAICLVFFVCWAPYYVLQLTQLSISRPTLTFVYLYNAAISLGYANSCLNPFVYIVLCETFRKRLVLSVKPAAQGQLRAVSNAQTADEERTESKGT
- assayOverview: Concentration required to inhibit 50% of melanin-concentrating hormone induced [Ca2+] flux in IMR-32 cells measured by using a fluorometric imaging plate reader
- Type: functional, cell-based

| molecule | assayTarget | measureUnit | readoutRelation | IC50 |
| --- | --- | --- | --- | --- |
| CCC(c1ccccc1)N1CCC(Oc2cccc3ccc(N)nc23)C1 (stereo not given) | UniProt:Q99705 | nM | = | 224 |
| CC(C)Cc1ccc(N2CCC(Oc3cccc4ccc(N)nc34)C2)cc1 (stereo not given) | UniProt:Q99705 | nM | = | 53.3 |
| Nc1ccc2cccc(O[C@H]3CCN(C(=O)c4ccc5c(c4)OCO5)C3)c2n1 | UniProt:Q99705 | nM | = | 9140 |
| Nc1ccc2cccc(O[C@H]3CCN(Cc4ccc5c(c4)OCO5)C3)c2n1 | UniProt:Q99705 | nM | = | 30 |
| CC(C)Cc1ccc(N2CCC(Oc3cccc4ccc(NCC5CC5)nc34)C2)cc1 (stereo not given) | UniProt:Q99705 | nM | > | 10000 |
| Nc1ccc2cccc(OC3CCN(c4ccc5c(c4)OC(F)(F)O5)C3)c2n1 (stereo not given) | UniProt:Q99705 | nM | = | 22.4 |
| Nc1ccc2cccc(O[C@@H]3CCN(Cc4ccc5c(c4)OCO5)C3)c2n1 | UniProt:Q99705 | nM | = | 1600 |
| CC(Cc1ccc2c(c1)OCO2)N1CCC(Oc2cccc3ccc(N)nc23)C1 (stereo not given) | UniProt:Q99705 | nM | = | 79.2 |
| CC(C)(C)c1ccc(CN2CC[C@H](Oc3cccc4ccc(N)nc34)C2)cc1 | UniProt:Q99705 | nM | = | 30 |
| Nc1ccc2cccc(O[C@H]3CCN(Cc4ccccc4)C3)c2n1 | UniProt:Q99705 | nM | = | 1690 |

====

Form field: AUC (one value per entry).
- assayOverview: Area under curve in plasma was determined at the peroral dose of 10 mg/kg in diet-induced obese (DIO) mice; unit may be ng.h/mL or ng.h/g
- Type: ADME, organism-based
- Set-up: dose 10 mg/kg, route oral
- particulars: mouse, in vivo, po

| compound | AUC / ng·h/mL |
| --- | --- |
| Nc1ccc2cccc(OC3CCN(c4ccc5c(c4)OC(F)(F)O5)C3)c2n1 (configuration not stated) | 801 |
| Nc1ccc2cccc(O[C@H]3CCN(Cc4ccc5c(c4)OCO5)C3)c2n1 | 1350 |

====

- assayOverview: Area under curve in brain was determined at the peroral dose of 10 mg/kg in diet-induced obese (DIO) mice; unit may be ng.h/mL or ng.h/g
- Assay type: ADME, organism-based
- Design: dose 10 mg/kg, route oral
- particulars: mouse, in vivo, po
property: AUC

| compound | observedMeasurement |
| --- | --- |
| Nc1ccc2cccc(OC3CCN(c4ccc5c(c4)OC(F)(F)O5)C3)c2n1 (configuration not stated) | 17700 ng·h/mL |
| Nc1ccc2cccc(O[C@H]3CCN(Cc4ccc5c(c4)OCO5)C3)c2n1 | 1710 ng·h/mL |

====

- assayOverview: Maximum concentration in plasma was determined at the peroral dose of 10 mg/kg in diet-induced obese (DIO) mice; unit may be ng/mL or ng/g
- Format: ADME, organism-based
- Parameters: dose 10 mg/kg, route oral
- particulars: mouse, po

| compound | measureUnit | Cmax |
| --- | --- | --- |
| Nc1ccc2cccc(OC3CCN(c4ccc5c(c4)OC(F)(F)O5)C3)c2n1 (configuration not stated) | ng/mL | 331 |
| Nc1ccc2cccc(O[C@H]3CCN(Cc4ccc5c(c4)OCO5)C3)c2n1 | ng/mL | 543 |
